Target: F508del (Homo sapiens, UniProt P13569, DEL508-508)
Construct: expressed in transfected cells
Sequence (P13569 with tags, fused parts or gaps DEL508-508): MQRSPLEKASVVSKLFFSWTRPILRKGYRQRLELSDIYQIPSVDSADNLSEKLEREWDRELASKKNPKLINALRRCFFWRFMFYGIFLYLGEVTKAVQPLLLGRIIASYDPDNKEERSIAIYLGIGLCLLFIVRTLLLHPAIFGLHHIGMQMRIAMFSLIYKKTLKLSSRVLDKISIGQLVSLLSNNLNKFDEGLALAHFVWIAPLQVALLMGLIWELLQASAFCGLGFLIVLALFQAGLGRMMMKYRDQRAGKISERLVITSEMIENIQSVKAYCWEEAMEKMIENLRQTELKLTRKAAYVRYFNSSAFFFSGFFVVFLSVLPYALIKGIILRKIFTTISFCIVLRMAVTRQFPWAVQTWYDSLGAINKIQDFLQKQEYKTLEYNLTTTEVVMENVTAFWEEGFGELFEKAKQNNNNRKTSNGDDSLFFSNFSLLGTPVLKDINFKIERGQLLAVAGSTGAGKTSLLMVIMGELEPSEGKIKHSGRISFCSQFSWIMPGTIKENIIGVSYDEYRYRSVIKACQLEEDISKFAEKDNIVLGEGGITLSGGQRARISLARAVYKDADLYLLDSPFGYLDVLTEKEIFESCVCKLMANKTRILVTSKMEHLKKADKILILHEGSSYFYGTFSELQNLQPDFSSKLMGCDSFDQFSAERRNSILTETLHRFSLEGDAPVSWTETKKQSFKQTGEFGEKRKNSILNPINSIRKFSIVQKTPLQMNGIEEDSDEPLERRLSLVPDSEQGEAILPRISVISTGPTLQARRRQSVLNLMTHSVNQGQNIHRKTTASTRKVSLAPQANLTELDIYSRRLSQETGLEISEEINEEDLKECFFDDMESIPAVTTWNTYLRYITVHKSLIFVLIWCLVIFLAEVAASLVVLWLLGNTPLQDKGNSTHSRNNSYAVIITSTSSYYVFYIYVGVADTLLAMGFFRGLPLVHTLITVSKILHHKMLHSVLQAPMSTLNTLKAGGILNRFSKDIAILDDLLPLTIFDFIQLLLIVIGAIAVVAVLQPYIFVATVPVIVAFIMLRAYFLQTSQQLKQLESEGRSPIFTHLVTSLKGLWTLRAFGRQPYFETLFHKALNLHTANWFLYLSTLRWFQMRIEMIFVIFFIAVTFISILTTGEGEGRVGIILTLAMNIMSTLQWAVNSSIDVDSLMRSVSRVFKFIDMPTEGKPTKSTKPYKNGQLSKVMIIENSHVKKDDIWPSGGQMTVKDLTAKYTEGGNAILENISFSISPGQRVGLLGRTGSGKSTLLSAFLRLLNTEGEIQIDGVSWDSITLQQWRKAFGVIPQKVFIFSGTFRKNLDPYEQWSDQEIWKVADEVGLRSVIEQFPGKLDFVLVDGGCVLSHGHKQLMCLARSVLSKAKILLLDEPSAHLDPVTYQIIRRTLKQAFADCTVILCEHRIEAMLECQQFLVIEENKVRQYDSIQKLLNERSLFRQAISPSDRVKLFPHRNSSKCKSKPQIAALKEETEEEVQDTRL
Assay: Protocol 2: FRET membrane potential optical assay (VIPR), identification of correction compounds
Assay type: cell-based
Settings: F508del CFTR modulator activity; compounds of Table 1; read-out: EC30
Below is a list of entries, each paired with its recorded EC30 value.

CC1CN(c2ncccc2C(=O)NS(=O)(=O)c2cccc(N3CCC(F)CC3)n2)C(C)(C)C1 (stereo not shown); < 3 µM

Entry under review: CC1CN(c2ncccc2C(=O)NS(=O)(=O)c2cccc(OCC(C)(C)n3cccc3)n2)C(C)(C)C1 (stereo not shown) . Reported EC30? < 3 µM

Entry under review: CC(C)COc1cc(F)cc(-c2ccc(C(=O)NS(=O)(=O)c3cccc(N)n3)c(N3C[C@@H](C)CC3(C)C)c2F)c1 . Reported EC30? < 3 µM

Entry under review: Cc1ccc(O)c(-c2ccc(C(=O)NS(=O)(=O)c3ccc[nH]c3=O)c(N3C[C@@H](C)CC3(C)C)n2)c1 . Reported EC30? 3 to 10 µM

Entry under review: CC(=O)c1ccc(Nc2cccc(S(=O)(=O)NC(=O)c3cccnc3N3CC(C)CC3(C)C)n2)cc1 (stereo not shown) . Reported EC30? 3 to 10 µM

Entry under review: Cc1ccc2nc(N3C[C@@H](C)CC3(C)C)c(C(=O)NS(=O)(=O)c3ccc[nH]c3=O)cc2c1 . Reported EC30? 3 to 10 µM

All figures here come from patent US10758534B2.
